The reported measurements were obtained from ChEMBL document CHEMBL1201862.

Listed here: items and their measured GI50.
System: SF-268
runDescription: NCI tumour cell line growth inhibition, 48 h
Calls of active or inactive are those of the source. Rule as the data show it: active = GI50 up to about 1.1 µM and inactive = higher.

{"compound": "CCCC[C@@H]1CCN2C[C@@H](O)[C@@H](O)[C@H]2[C@@H]1O", "GI50": "> 100 µM (inactive)"}
{"compound": "NC(=S)C1=C(N)Oc2c(c(=O)oc3ccccc23)C1c1ccc(Br)cc1 (centres undefined)", "GI50": "> 100 µM (inactive)"}
{"compound": "Cc1ccc(S(=O)(=O)NNC(=O)Nc2ccc(Cl)cc2)cc1", "GI50": "> 100 µM (inactive)"}
{"compound": "N/N=C(\\CCN1CCCC1)CC(c1ccccc1)c1c(O)c2ccccc2oc1=O (centres undefined)", "GI50": "> 100 µM (inactive)"}
{"compound": "Cc1ccc(O)c(C(c2ccc(C(c3cc(C)ccc3O)c3cc(C)ccc3O)cc2)c2cc(C)ccc2O)c1", "GI50": "1.62 µM (inactive)"}
{"compound": "CC(C)OC(=O)c1ccc(CCC2=CC(=O)C(Br)=CC2=O)cc1", "GI50": "16 µM (inactive)"}
{"compound": "COc1ccc(/C=C/c2cc(OC)c(OC(C)=O)c(OC)c2)cc1", "GI50": "29.1 µM (inactive)"}
{"compound": "COc1cc2c(cc1OC)C1Cc3cc(OC)c(OC)cc3N1CC2 (centres undefined)", "GI50": "35 µM (inactive)"}
{"compound": "COCCCNC(=O)CC(=O)NCCCOC", "GI50": "> 100 µM (inactive)"}

---

Listed here: items and their measured GI50.
Test system: SNB-75
runDescription: NCI tumour cell line growth inhibition, 48 h
Activity calls are given as the source filed them. Rule as the data show it: active = GI50 up to about 1.1 µM and inactive = higher.

{"molecule": "CS(=O)(=O)CS(=O)(=O)OCCCl", "measuredOn": "SNB-75", "GI50": "46.8 µM (inactive)"}
{"molecule": "CC(=O)Oc1ccc2c3c1[C@H]1O[C@H]1c1cccc(c1-3)[C@@H]1O[C@H]21", "measuredOn": "SNB-75", "GI50": "4.13 µM (inactive)"}
{"molecule": "CC1=NN(c2nc(N)nc(CO)n2)C(C)(C)C1", "measuredOn": "SNB-75", "GI50": "> 100 µM (inactive)"}
{"molecule": "Clc1ccc(C2C3COc4ccccc4C3=NN2c2ccccc2)cc1 (stereo not drawn)", "measuredOn": "SNB-75", "GI50": "> 70.3 µM (inactive)"}
{"molecule": "O=C(Nc1cccc(C(F)(F)F)c1)c1cc(Br)cc(Br)c1O", "measuredOn": "SNB-75", "GI50": "3.35 µM (inactive)"}
{"molecule": "C=C[C@]1(C)CCC2=C(CCC3C2(C)CCC[C@]3(C)CO)C1 (stereo partly drawn)", "measuredOn": "SNB-75", "GI50": "61.5 µM (inactive)"}
{"molecule": "O=C(CC1(O)C(=O)Nc2c(Cl)ccc(Cl)c21)c1ccc(Cl)cc1 (stereo not drawn)", "measuredOn": "SNB-75", "GI50": "26.6 µM (inactive)"}
{"molecule": "CC(=O)c1c(-c2ccc(Cl)cc2)c(C#N)c(=S)n(C2OC(CO)C(O)C(O)C2O)c1C (stereo not drawn)", "measuredOn": "SNB-75", "GI50": "> 100 µM (inactive)"}
